growth overview
Tested on: T-47D breast
Test: NCI-60 one-dose screen, 48 h (100 = growth as untreated, 0 = no growth, -100 = all killed)
Details: 10 µM unless noted
The panel holds about 83,000 compounds, 20% with a hit somewhere; the sample as a whole holds those more often.
Enter your answer as a number in %; do not include the unit.

See these solved cases before continuing.
Data request: Field request: growth | item: COc1cc2nc(-c3ccc(C(F)(F)F)cc3)cc(OCCCN3CCC(O)CC3)c2cc1OC
Data returned: 24.7

Data request: Field request: growth | item: O=C(CNCCO)Nc1ccc2ncnc(Nc3ccc(OCc4cccc(F)c4)c(Cl)c3)c2c1
Data returned: 45.2

Data request: Field request: growth | item: N#Cc1c(NC(=O)c2cccc(Br)c2)sc2c1CCCC2
Data returned: 77.9

Data request: Field request: growth | item: COc1ccc(C(=O)c2cc3c(N)c(C(=O)Nc4cccc(Cl)c4)sc3nc2C)cc1
Data returned: 43.8

Data request: Field request: growth | item: Cc1ccc(C2CC(c3cccc(Nc4ccncc4)c3)=NN2c2ccccc2)cc1 (configuration not stated)
Data returned: -58.2

More entries:
Data request: Field request: growth | item: CC[C@@]12C=CCN3CC[C@]4(c5cc(NC(=O)COc6cc(OCC(=O)Nc7cc8c(cc7OC)N(C)[C@H]7[C@@](O)(C(=O)OC)[C@H](OC(C)=O)[C@]9(CC)C=CCN%10CC[C@]87[C@@H]%109)cc7oc(-c8ccccc8)cc(=O)c67)c(OC)cc5N(C)[C@@H]4[C@](O)(C(=O)OC)[C@H]1OC(C)=O)[C@H]32
Data returned: 77.3

Data request: Field request: growth | item: O=C(Nc1ccc2ncnc(Nc3ccc(Oc4cccc(F)c4)c(Cl)c3)c2c1)c1ccc(CN2CCOCC2)cc1
Data returned: -9.3
